target entity: CCRF-CEM cells (Homo sapiens, UniProt P61073)
Sequence (P61073 whole entry): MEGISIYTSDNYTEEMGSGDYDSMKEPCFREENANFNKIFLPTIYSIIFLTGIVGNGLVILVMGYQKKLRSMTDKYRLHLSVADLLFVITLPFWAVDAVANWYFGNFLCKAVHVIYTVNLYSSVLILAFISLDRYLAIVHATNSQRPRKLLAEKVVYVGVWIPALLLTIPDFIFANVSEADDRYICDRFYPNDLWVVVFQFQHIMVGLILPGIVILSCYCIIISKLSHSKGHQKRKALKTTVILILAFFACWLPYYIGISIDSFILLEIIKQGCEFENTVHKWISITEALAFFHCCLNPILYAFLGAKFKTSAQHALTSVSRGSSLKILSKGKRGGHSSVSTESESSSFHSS
test context: read-out: IC50 (μM) Cell migration assay; CCRF-CEM cells migrating to 1 nM SDF-1, 4 hours
Where a SMILES comes first, the peptide text is derived from it. Bridges are numbered along the chain shown (N, C = ends). [ ]: non-standard residue; d: D form. Phe(4-NH2) = Nc1ccc(C[C@H](N)C(=O)O)cc1; 2Nal = N[C@@H](Cc1ccc2ccccc2c1)C(=O)O; Cit = NC(=O)NCCC[C@H](N)C(=O)O; Gly(N(CH2)3NH2) = NCCCNCC(=O)O; Nlys = NCCCCNCC(=O)O
Reported IC50 values for a set of compounds
Use µM as the unit, but write only the number.

Record excerpt, results attached:
| compound | endpoint value |
| --- | --- |
| N=C(N)NCCC[C@H](NC(=O)[C@@H]1CSSC[C@H](NC(=O)[C@H](Cc2ccc3ccccc3c2)NC(=O)[C@H](CCCNC(=N)N)NC(=O)CNCCCN)C(=O)N[C@@H](Cc2ccc(O)cc2)C(=O)N[C@@H](CCCNC(N)=O)C(=O)N[C@@H](CCCCN)C(=O)N2CCC[C@@H]2C(=O)N2CCC[C@H]2C(=O)N[C@@H](Cc2ccc(O)cc2)C(=O)N[C@@H](CCCNC(=N)N)C(=O)N[C@@H](CCCNC(N)=O)C(=O)N1)C(N)=O [Example 15] (H-[Gly(N(CH2)3NH2)]R[2Nal]CY[Cit]K[dP]PYR[Cit]CR-NH2; disulfide 4-13) | 0.57 |
| N=C(N)NCCC[C@H](NC(=O)[C@@H]1CSSC[C@H](NC(=O)[C@H](Cc2ccc(N)cc2)NC(=O)[C@H](CCCNC(=N)N)NC(=O)[C@@H](N)CCCNC(=N)N)C(=O)N[C@@H](Cc2ccc(O)cc2)C(=O)N[C@@H](CCCNC(N)=O)C(=O)N[C@@H](CCCCN)C(=O)N2CCC[C@@H]2C(=O)N2CCC[C@H]2C(=O)N[C@@H](Cc2ccc(O)cc2)C(=O)N[C@@H](CCCNC(=N)N)C(=O)N[C@@H](CCCNC(N)=O)C(=O)N1)C(N)=O [Example 12] (H-RR[Phe(4-NH2)]CY[Cit]K[dP]PYR[Cit]CR-NH2; disulfide 4-13) | 5 |
| N=C(N)NCCC[C@H](NC(=O)[C@@H]1CSSC[C@H](NC(=O)[C@H](Cc2ccc3ccccc3c2)NC(=O)[C@H](CCCNC(=N)N)NC(=O)CNCCCCN)C(=O)N[C@@H](Cc2ccc(O)cc2)C(=O)N[C@@H](CCCNC(N)=O)C(=O)N[C@@H](CCCCN)C(=O)N2CCC[C@@H]2C(=O)N2CCC[C@H]2C(=O)N[C@@H](Cc2ccc(O)cc2)C(=O)N[C@@H](CCCNC(=N)N)C(=O)N[C@@H](CCCNC(N)=O)C(=O)N1)C(N)=O [Example 16] (H-[Nlys]R[2Nal]CY[Cit]K[dP]PYR[Cit]CR-NH2; disulfide 4-13) | 1.04 |

Record CC(=O)N[C@@H](CCCNC(=N)N)C(=O)N[C@@H](CCCNC(=N)N)C(=O)N[C@@H](Cc1ccc2ccccc2c1)C(=O)N[C@H]1CSSC[C@@H](C(=O)N[C@@H](CCCNC(=N)N)C(N)=O)NC(=O)[C@H](CCCNC(N)=O)NC(=O)[C@H](CCCNC(=N)N)NC(=O)[C@H](Cc2ccc(O)cc2)NC(=O)[C@@H]2CCCN2C(=O)[C@H]2CCCN2C(=O)[C@H](CCCCN)NC(=O)[C@H](CCCNC(N)=O)NC(=O)[C@H](Cc2ccc(O)cc2)NC1=O [Example 8] (Ac-RR[2Nal]CY[Cit]K[dP]PYR[Cit]CR-NH2; disulfide 4-13) . Reported IC50: 5

Record N=C(N)NCCC[C@@H](N)C(=O)N[C@@H](CCCNC(=N)N)C(=O)N[C@@H](Cc1ccc2ccccc2c1)C(=O)N[C@H]1CSSC[C@@H](C(=O)N[C@@H](CCCNC(=N)N)C(N)=O)NC(=O)[C@H](CCCNC(N)=O)NC(=O)[C@H](CCCNC(=N)N)NC(=O)[C@H](Cc2ccc(O)cc2)NC(=O)[C@@H]2CCCN2C(=O)[C@H]2CCCN2C(=O)[C@H](CCCCN)NC(=O)[C@H](CCCNC(N)=O)NC(=O)[C@H](Cc2ccc(O)cc2)NC1=O [Example 10] (H-[dR]R[2Nal]CY[Cit]K[dP]PYR[Cit]CR-NH2; disulfide 4-13) . Reported IC50: 0.55
